Record form. Attribute: Papp at 5 h, 20 μM. Fill in for each entry.
Test: PAMPA permeability
Settings: PAMPA, Permeability, Pe, 20 μM donor in PBS/MeOH 90:10; 5 hours at RT
Numbers only, in ×10⁻⁶ cm/s.

Illustrative cases are given below, each with its answer.
>>> value_observed("COc1cc2c(NC3CCS(=O)(=O)CC3)nc(N3CCC(F)(F)CC3)nc2cc1OCCCN1CCCC1 [Compound 1]")
0.0441
>>> value_observed("COc1cc2c(NC3COC3)nc(N3CCC(F)(F)CC3)nc2cc1OCCCN1CCCC1 [Compound 11]")
0.458
>>> value_observed("COc1cc2c(NC3CCN(C(C)C)CC3)nc(N3CCC3)nc2cc1OCCCN1CCCC1 [Compound 234]")
0.000285

Provide Papp at 5 h, 20 μM for all items below, preserving their order.
1. COc1cc2c(NC3CCOCC3)nc(N3CCOCC3)nc2cc1OCCCN1CCCC1 [Compound 195]
2. COc1cc2c(NC3CCS(=O)(=O)CC3)nc(N3CCS(=O)(=O)CC3)nc2cc1OCCCN1CCCC1 [Compound 103]
3. COc1cc2c(NC3CCOCC3)nc(N3CCCC3)nc2cc1OCCCN1CCCC1 [Compound 164]
4. COc1cc2c(NC3CCOCC3)nc(N3CCC(F)(F)CC3)nc2cc1OCCCN1CCCC1 [Compound 2]

### Response
0.238
0.0119
0.0476
6.38

### Prompt Requested field: Papp at 5 h, 20 μM. Item: COc1cc2c(NC3CCS(=O)(=O)CC3)nc(N3CCOCC3)nc2cc1OCCCN1CCCC1 [Compound 102]
### Response 0.000648

* * *

Record form. Attribute: IC50. Fill in for each entry.
Target: CYP2D6 (Homo sapiens, UniProt P10635)
Construct: from tissue; host or cells: pooled human liver microsomes
Sequence (P10635 whole entry): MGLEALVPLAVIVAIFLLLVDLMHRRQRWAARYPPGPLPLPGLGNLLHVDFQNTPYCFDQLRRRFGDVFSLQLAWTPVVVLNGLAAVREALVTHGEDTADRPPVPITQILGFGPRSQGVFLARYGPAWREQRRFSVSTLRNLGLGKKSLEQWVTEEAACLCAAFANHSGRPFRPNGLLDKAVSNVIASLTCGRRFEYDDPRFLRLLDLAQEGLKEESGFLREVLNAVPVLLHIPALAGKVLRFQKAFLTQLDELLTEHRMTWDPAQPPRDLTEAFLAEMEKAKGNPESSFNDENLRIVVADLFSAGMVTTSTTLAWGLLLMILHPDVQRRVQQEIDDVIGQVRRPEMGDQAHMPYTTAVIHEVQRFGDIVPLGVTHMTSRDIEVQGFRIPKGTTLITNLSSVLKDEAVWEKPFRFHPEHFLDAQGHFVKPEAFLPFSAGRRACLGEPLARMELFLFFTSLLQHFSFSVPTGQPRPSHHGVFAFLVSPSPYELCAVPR
Assay: CYP-direct inhibition, CYP2D6
Assay type: in vitro ADME
Settings: human liver microsome; substrate dextromethorphan; read-out: IC50 CYP-2D6

Illustrative cases are given below, each with its answer.
>>> value_observed("COc1cc2c(NC3CCOCC3)nc(N3CCN(C)CC3)nc2cc1OCCCN1CCCC1")
"> 100 µM"
>>> value_observed("COc1cc2c(NC3CCNCC3)nc(N3CCC(F)(F)CC3)nc2cc1OCCCN1CCCC1")
"> 100 µM"

Continue with the next compound.
### Prompt Requested field: IC50. Item: `COc1cc2c(NC3CCS(=O)(=O)CC3)nc(N3CCN(C)CC3)nc2cc1OCCCN1CCCC1`
### Response > 100 µM
